system: biotinyl-Ile-oxazolone; assay: self-aminoacylation, catalytic enhancement (BIO) (fold over background); higher = more active; k-Seq, kA / k0A0; sequences stand for … in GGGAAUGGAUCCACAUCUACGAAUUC…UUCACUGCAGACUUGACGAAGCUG
Fewer inactive variants are shown than the library holds.
MEASURED_METRIC: self-aminoacylation

Problem: Respond only with self-aminoacylation recorded for AUGUUUGCUAAAAGUCGCAAG [Fam3.1 aminoacylation ribozyme variant]
Solution: 1.56

Problem: Respond only with self-aminoacylation recorded for AAGUUUGCUAGUAGUCGCGAG [Fam3.1 aminoacylation ribozyme variant]
Solution: 1.27

Problem: Respond only with self-aminoacylation recorded for AUUACCCUGGUAAUCGAGUGA [Fam2.1 aminoacylation ribozyme variant]
Solution: 3.7

Problem: Respond only with self-aminoacylation recorded for AAGUUUGCUAGUACUCGCAAG [Fam3.1 aminoacylation ribozyme variant]
Solution: 0.894

Problem: Respond only with self-aminoacylation recorded for GAGUUUGCUAAUAGUCGCAAG [Fam3.1 aminoacylation ribozyme variant]
Solution: 1.72

Problem: Respond only with self-aminoacylation recorded for AUUCACGUAGGCCAUCGGGUG [Fam2.2 aminoacylation ribozyme variant]
Solution: 3.71

Problem: Respond only with self-aminoacylation recorded for AUUACCCGGGUAAUCGAGUGA [Fam2.1 aminoacylation ribozyme variant]
Solution: 5.16

Problem: Respond only with self-aminoacylation recorded for UAGUUUGCCAAUAGUCGCAAG [Fam3.1 aminoacylation ribozyme variant]
Solution: 1.61

Problem: Respond only with self-aminoacylation recorded for CCACAUUUCAAGCAAUCGGCC [Fam1B.1 aminoacylation ribozyme variant]
Solution: 3.63

Problem: Respond only with self-aminoacylation recorded for AUUCCCUUAGGUCAUCGGGUG [Fam2.2 aminoacylation ribozyme variant]
Solution: 19.3

Problem: Respond only with self-aminoacylation recorded for CUACUUCAAACAAUCGGACUU [Fam1A.1 aminoacylation ribozyme variant]
Solution: 0.788

Problem: Respond only with self-aminoacylation recorded for CCACACUUCACGCAAUCGAUC [Fam1B.1 aminoacylation ribozyme variant]
Solution: 0.568

Problem: Respond only with self-aminoacylation recorded for AUUCUCCUAGGUCAUCGAGUG [Fam2.2 aminoacylation ribozyme variant]
Solution: 3.62

Problem: Respond only with self-aminoacylation recorded for CUUGCCCUGGUCAUCGAGUGA [Fam2.1 aminoacylation ribozyme variant]
Solution: 6.56

Problem: Respond only with self-aminoacylation recorded for AAGUUUUCUAAUAGUCCCAAG [Fam3.1 aminoacylation ribozyme variant]
Solution: 1.02

Problem: Respond only with self-aminoacylation recorded for AUUCACUUAGGUUAUCGGGUG [Fam2.2 aminoacylation ribozyme variant]
Solution: 2.37

Problem: Respond only with self-aminoacylation recorded for CCAAGCUUCAAGCAAUCGGUC [Fam1B.1 aminoacylation ribozyme variant]
Solution: 1.35

Problem: Respond only with self-aminoacylation recorded for CGACACUUCAAGCAAUCGAUC [Fam1B.1 aminoacylation ribozyme variant]
Solution: 0.672
